# credit: patent US12129246B1

I'd appreciate it if you could supply Monkey NPR1 Amax (% of ANP) values for the items below.
# subject_of_test: monkey NPR1 (Macaca fascicularis, UniProt A0A7N9DBT9)
# Sequence (A0A7N9DBT9 entry or part of it): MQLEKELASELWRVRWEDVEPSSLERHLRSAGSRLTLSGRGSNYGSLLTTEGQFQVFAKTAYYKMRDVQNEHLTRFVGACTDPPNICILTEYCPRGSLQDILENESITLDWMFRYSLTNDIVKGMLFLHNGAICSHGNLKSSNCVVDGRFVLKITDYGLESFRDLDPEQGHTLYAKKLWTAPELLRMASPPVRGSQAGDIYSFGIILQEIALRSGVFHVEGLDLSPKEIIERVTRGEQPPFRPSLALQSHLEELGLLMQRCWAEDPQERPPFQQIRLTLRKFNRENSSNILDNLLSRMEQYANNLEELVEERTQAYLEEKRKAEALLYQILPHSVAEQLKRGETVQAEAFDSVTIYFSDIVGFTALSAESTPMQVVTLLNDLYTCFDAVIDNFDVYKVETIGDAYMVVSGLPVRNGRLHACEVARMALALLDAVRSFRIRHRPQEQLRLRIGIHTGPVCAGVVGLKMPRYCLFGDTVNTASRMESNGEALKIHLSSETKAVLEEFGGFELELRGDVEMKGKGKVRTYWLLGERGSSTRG
# assay_method_text: Cellular cGMP production assay, monkey NPR1 expressing CHO-K1 cells (CisBio HTRF)
# Assay type: cell-based
# condition_details: maximum cGMP production as percentage of the maximum cGMP produced with ANP, monkey NPR1 CHO-K1 cells

Record excerpt, results attached:
* CC[C@@H](N(C)c1nc2c(c(N[C@@H](CN3C4CCCC3CCC4)c3cnn(C)c3C)n1)C[C@H](c1cccc(F)c1)CC2)C12CC(C(=O)O)(C1)C2 | 103.084 % of ANP
* CC[C@@H](Nc1nc2c(c(N[C@@H](CN3C4CCCC3CCC4)c3cnn(CC)c3)n1)C[C@H](c1ccccc1)CC2)[C@H]1CC[C@H](C(=O)O)CC1 | 99.329 % of ANP
* CC[C@@H](N(C)c1nc2c(c(N[C@@H](CN3C4CCCC3CC4)c3sc(C)nc3C)n1)C[C@H](c1cccc(F)c1)CC2)C12CC(C(=O)O)(C1)C2 | 103.264 % of ANP

Look up Monkey NPR1 Amax (% of ANP) for the entries below, preserving their order.
1. CC[C@H]([C@H]1CC[C@H](C(=O)O)CC1)N(C)c1nc2c(c(N[C@@H](CN3C4CCCC3CC4)c3cnn(C)c3)n1)C[C@H](c1ccccc1)CC2
2. CC[C@H]([C@H]1CC[C@H](C(=O)O)CC1)N(C)c1nc2c(c(N[C@@H](CN3CCC[C@H](C)C3)c3cnn(C)c3)n1)C[C@@H](c1ccccc1F)CC2

**A:**
106.030 % of ANP
105.798 % of ANP
